- system under test: Dual specificity protein phosphatase 6 (Rattus norvegicus)
- test details: inhibition of rat DUSP6 enzyme activity – biochemical, in vitro, primary screen (AID 425);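 also: plate controls were vehicle for no effect and reference inhibitor for full effect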
- conditions used: recombinant MKP-3 phosphatase activity, fluorescence; at 20 µM; active compounds read high
The whole screen tested about 110,000 compounds, of which about 190 (0.17%) were called active. The sample as a whole holds a higher share of actives than the screen did. Results with a measured potency or affinity are listed apart.

[
  {
    "compound": "CC(C)c1ccc(N2C(=O)NC(=O)/C(=C/c3ccco3)C2=O)cc1",
    "inhibition / %": 4.9
  },
  {
    "compound": "C=CCN1C(=O)/C(=C\\c2ccc(C)o2)C(=O)NC1=S",
    "inhibition / %": 8.6
  },
  {
    "compound": "O=C1NC(=S)N(c2cccc(Br)c2)C(=O)/C1=C/c1cccs1",
    "inhibition / %": 5.7
  },
  {
    "compound": "Clc1ccc(CCNCc2ccc3c(c2)OCO3)c(Cl)c1",
    "inhibition / %": 1.1
  },
  {
    "compound": "CCOC(=O)C1CCN(/C=C2/C(=O)NC(=O)N(Cc3ccco3)C2=O)CC1",
    "inhibition / %": -5.2
  },
  {
    "compound": "CCOc1c(P(=S)(N(C)C)N(C)C)c(C)nn1-c1ccccc1",
    "inhibition / %": -4.3
  },
  {
    "compound": "O=C1N(CN2CCOCC2)c2ccccc2C1(O)c1c[nH]c2ccccc12 (stereo not drawn)",
    "inhibition / %": 0.3
  },
  {
    "compound": "CN(C)C(=O)Oc1ccc([N+](=O)[O-])cc1",
    "inhibition / %": -1.2
  }
]

---

- system under test: Dual specificity protein phosphatase 6 (Rattus norvegicus) (UniProt Q64346)
- Sequence (Q64346 whole entry, looked up): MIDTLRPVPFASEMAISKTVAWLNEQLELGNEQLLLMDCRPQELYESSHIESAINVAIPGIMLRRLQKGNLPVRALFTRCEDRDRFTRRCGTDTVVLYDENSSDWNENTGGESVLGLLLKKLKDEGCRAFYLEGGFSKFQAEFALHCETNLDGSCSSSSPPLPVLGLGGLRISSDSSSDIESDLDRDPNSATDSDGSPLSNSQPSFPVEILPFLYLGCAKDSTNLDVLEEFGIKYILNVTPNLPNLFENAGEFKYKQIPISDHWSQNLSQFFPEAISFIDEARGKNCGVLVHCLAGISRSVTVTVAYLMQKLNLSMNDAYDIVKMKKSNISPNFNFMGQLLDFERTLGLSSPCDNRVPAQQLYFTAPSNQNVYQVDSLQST
- test details: inhibition of rat DUSP6 enzyme activity – biochemical, in vitro, primary screen (AID 425);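 also: plate controls were vehicle for no effect and reference inhibitor for full effect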
- conditions used: recombinant MKP-3 phosphatase activity, fluorescence; at 20 µM; active compounds read high
In all, about 110,000 compounds went through this assay and about 190 (0.17%) were called active. Shown is part of a subset that was picked to be rich in actives. Entries with a potency or affinity are not part of this list.
Each entry below carries its reported inhibition.
value type: inhibition (%)

[
  {
    "compound": "CN(C)C(=O)Oc1ccc(OC(=O)c2ccccc2)cc1",
    "system under test": "Dual specificity protein phosphatase 6 (Rattus norvegicus) (UniProt Q64346)",
    "units of measure": "%",
    "number": -6.4
  },
  {
    "compound": "CCOc1ccc(N2C(=O)/C(=C/c3cc(Cl)ccc3O)C(=O)NC2=S)cc1",
    "system under test": "Dual specificity protein phosphatase 6 (Rattus norvegicus) (UniProt Q64346)",
    "units of measure": "%",
    "number": 4.8
  },
  {
    "compound": "CN(C)c1ccc(C=C2C(=O)NC(=S)N(c3ccccc3F)C2=O)cc1",
    "system under test": "Dual specificity protein phosphatase 6 (Rattus norvegicus) (UniProt Q64346)",
    "units of measure": "%",
    "number": -0.6
  },
  {
    "compound": "C=CCN1C(=O)/C(=C\\C=C\\c2ccco2)C(=O)NC1=S",
    "system under test": "Dual specificity protein phosphatase 6 (Rattus norvegicus) (UniProt Q64346)",
    "units of measure": "%",
    "number": 83.7
  },
  {
    "compound": "Cn1cc(/C=C2\\C(=O)NC(=O)N(Cc3ccccc3)C2=O)c2ccccc21",
    "system under test": "Dual specificity protein phosphatase 6 (Rattus norvegicus) (UniProt Q64346)",
    "units of measure": "%",
    "number": 2.1
  },
  {
    "compound": "Cc1ccc2nc3c(cc2c1)CC1(C(=O)N(C)C(=O)N(C)C1=O)C1CCCCN31 (stereo not drawn)",
    "system under test": "Dual specificity protein phosphatase 6 (Rattus norvegicus) (UniProt Q64346)",
    "units of measure": "%",
    "number": -20.3
  },
  {
    "compound": "CC(C)N1CCN(Cc2cc(Br)ccc2O)CC1",
    "system under test": "Dual specificity protein phosphatase 6 (Rattus norvegicus) (UniProt Q64346)",
    "units of measure": "%",
    "number": -1.8
  },
  {
    "compound": "O=C1c2ccccc2C2(c3ccc(Cl)cc3)NCCN12 (stereo not drawn)",
    "system under test": "Dual specificity protein phosphatase 6 (Rattus norvegicus) (UniProt Q64346)",
    "units of measure": "%",
    "number": -7.5
  },
  {
    "compound": "COC(=O)CCCNC(=O)CN1CC(c2ccccc2)CC1=O (stereo not drawn)",
    "system under test": "Dual specificity protein phosphatase 6 (Rattus norvegicus) (UniProt Q64346)",
    "units of measure": "%",
    "number": -1.1
  },
  {
    "compound": "O=C(c1ccc(N2N=N2)cc1)c1ccc(N2N=N2)cc1",
    "system under test": "Dual specificity protein phosphatase 6 (Rattus norvegicus) (UniProt Q64346)",
    "units of measure": "%",
    "number": -3.2
  },
  {
    "compound": "CCOc1ccc(N2C(=O)/C(=C/c3ccco3)C(=O)NC2=S)cc1",
    "system under test": "Dual specificity protein phosphatase 6 (Rattus norvegicus) (UniProt Q64346)",
    "units of measure": "%",
    "number": 107
  },
  {
    "compound": "CCOc1ccc(N2C(=O)NC(=O)/C(=C\\c3ccc(C)o3)C2=O)cc1",
    "system under test": "Dual specificity protein phosphatase 6 (Rattus norvegicus) (UniProt Q64346)",
    "units of measure": "%",
    "number": 3.6
  },
  {
    "compound": "O=C1NC(=S)N(c2cccc(Br)c2)C(=O)/C1=C/C=C/c1ccccc1",
    "system under test": "Dual specificity protein phosphatase 6 (Rattus norvegicus) (UniProt Q64346)",
    "units of measure": "%",
    "number": 11.1
  },
  {
    "compound": "CN1C(=O)NC(=O)/C(=C/c2ccc(Br)o2)C1=O",
    "system under test": "Dual specificity protein phosphatase 6 (Rattus norvegicus) (UniProt Q64346)",
    "units of measure": "%",
    "number": 6
  },
  {
    "compound": "O=C1NC(=S)N(c2ccc(Br)cc2)C(=O)/C1=C/c1ccc(-c2ccccc2C(=O)O)o1",
    "system under test": "Dual specificity protein phosphatase 6 (Rattus norvegicus) (UniProt Q64346)",
    "units of measure": "%",
    "number": 4.4
  },
  {
    "compound": "O=C(c1cc2c(s1)CCCC2)N1CCC2(CC1)OCCO2",
    "system under test": "Dual specificity protein phosphatase 6 (Rattus norvegicus) (UniProt Q64346)",
    "units of measure": "%",
    "number": -11.3
  },
  {
    "compound": "O=C1NC(=O)N(c2ccc(Cl)cc2)C(=O)/C1=C/c1ccc(Br)o1",
    "system under test": "Dual specificity protein phosphatase 6 (Rattus norvegicus) (UniProt Q64346)",
    "units of measure": "%",
    "number": 41.4
  },
  {
    "compound": "CN1CCN(Cc2nc3ccccc3n2C)CC1",
    "system under test": "Dual specificity protein phosphatase 6 (Rattus norvegicus) (UniProt Q64346)",
    "units of measure": "%",
    "number": -3
  },
  {
    "compound": "O=C1NC(=S)N(c2cccc(Br)c2)C(=O)/C1=C/c1ccco1",
    "system under test": "Dual specificity protein phosphatase 6 (Rattus norvegicus) (UniProt Q64346)",
    "units of measure": "%",
    "number": 108
  },
  {
    "compound": "O=C1NC(=S)N(c2ccccc2)C(=O)/C1=C/c1ccco1",
    "system under test": "Dual specificity protein phosphatase 6 (Rattus norvegicus) (UniProt Q64346)",
    "units of measure": "%",
    "number": 102
  },
  {
    "compound": "Cc1cccc(N2C(=O)NC(=O)C(=Cc3ccco3)C2=O)c1",
    "system under test": "Dual specificity protein phosphatase 6 (Rattus norvegicus) (UniProt Q64346)",
    "units of measure": "%",
    "number": 2.3
  },
  {
    "compound": "O=C(Nc1cccc(OC(=O)N2CCOCC2)c1)N1CCOCC1",
    "system under test": "Dual specificity protein phosphatase 6 (Rattus norvegicus) (UniProt Q64346)",
    "units of measure": "%",
    "number": 0.2
  },
  {
    "compound": "CN1C(=O)NC(=O)/C(=C/c2ccc(I)o2)C1=O",
    "system under test": "Dual specificity protein phosphatase 6 (Rattus norvegicus) (UniProt Q64346)",
    "units of measure": "%",
    "number": -0.4
  }
]

# credit: PubChem BioAssay AID425
